Assay overview: Aqueous solubility at pH 4
Assay type: physicochemical
Measurement kind: solubility

Worked cases, answers included:
>>> assay_result("FC(F)(F)c1ccc2[nH]c(Nc3ccc(CCNc4ncnc5ccsc45)cn3)nc2c1")
"> 1000 µM"
>>> assay_result("c1ccc(-c2c[nH]c(Nc3ccc(CCNc4ncnc5ccsc45)cc3)n2)cc1")
"> 1000 µM"

Give solubility for each of the items listed below.
1. O=C(Nc1cccc(C(F)(F)F)c1)Nc1ncc(CCNc2ncnc3ccsc23)s1
2. FC(F)(F)c1ccc2nc(Nc3ncc(CCNc4ncnc5ccsc45)s3)[nH]c2c1
3. c1cc2nc(Nc3ccc(CCNc4ncnc5ccsc45)cc3)[nH]c2cn1

A)
1: 50 µM; 2: 100 µM; 3: > 1000 µM

----------
Assay target: Aurora kinase B (Homo sapiens)
Sequence (Q96GD4 whole entry): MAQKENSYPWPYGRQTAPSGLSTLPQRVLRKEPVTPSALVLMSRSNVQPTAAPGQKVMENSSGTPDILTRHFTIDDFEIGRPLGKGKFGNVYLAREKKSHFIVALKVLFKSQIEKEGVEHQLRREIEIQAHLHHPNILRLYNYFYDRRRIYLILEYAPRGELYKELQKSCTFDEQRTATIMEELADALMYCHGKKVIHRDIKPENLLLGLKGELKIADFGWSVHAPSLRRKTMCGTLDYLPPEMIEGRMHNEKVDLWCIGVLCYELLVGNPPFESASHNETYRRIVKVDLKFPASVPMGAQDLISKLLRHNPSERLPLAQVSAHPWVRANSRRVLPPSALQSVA
pIC50: −log10 of the molar value.
Returns the class for an entry based on its pIC50. Class ranges: small value = under 6, mid value = from 6 up to 7, large value = 7 and over

>>> label("c1ccc2sc(Nc3ccc(CCNc4ncnc5ccsc45)cc3)nc2c1")
"small value"
>>> label("c1cc(CNc2ncnc3ccsc23)cc(Nc2nc3ccccc3[nH]2)c1")
"mid value"

Q) Assign a category based on measured pIC50 for Cn1c(Nc2ccc(CCNc3ncnc4ccsc34)cc2)nc2ccccc21 and give only the class name.
A) mid value

Q) Assign a category based on measured pIC50 for FC(F)(F)c1ccc2nc(Nc3ncc(CCNc4ncnc5ccsc45)s3)[nH]c2c1 and give only the class name.
A) mid value

Q) Assign a category based on measured pIC50 for c1ccc2[nH]c(Nc3ccc(CNc4ncnc5ccsc45)cc3)nc2c1 and give only the class name.
A) small value

Q) Assign a category based on measured pIC50 for c1ccc2[nH]c(Nc3ncc(CCNc4ncnc5ccsc45)s3)nc2c1 and give only the class name.
A) mid value

Q) Assign a category based on measured pIC50 for FC(F)(F)c1ccc2[nH]c(Nc3ccc(CCNc4ncnc5ccsc45)cc3)nc2c1 and give only the class name.
A) large value

Q) Assign a category based on measured pIC50 for Fc1cc(CCNc2ncnc3ccsc23)ccc1Nc1nc2cc(C(F)(F)F)ccc2[nH]1 and give only the class name.
A) large value

----------
Assay overview: Aqueous solubility at pH 4
Type: physicochemical
Measurement kind: solubility

Give solubility for each of the items listed below.
1. Clc1ccc2[nH]c(Nc3ccc(CCNc4ncnc5ccsc45)cc3)nc2c1
2. Cc1nc(Nc2ccc(CCNc3ncnc4ccsc34)cc2)[nH]c1C
3. Cn1c(Nc2ccc(CCNc3ncnc4ccsc34)cc2)nc2ccccc21

A)
["> 1000 µM", "> 1000 µM", "> 1000 µM"]

----------
Assay target: UniProtKB Q96GD4
Measurement kind: IC50 (nM)
Give bare numbers, in nM.

Worked cases, answers included:
>>> assay_result("FC(F)(F)c1ccc2nc(Nc3ccc(CCNc4ncnc5ccsc45)nc3)[nH]c2c1")
63
>>> assay_result("c1cnc2nc(Nc3ccc(CCNc4ncnc5ccsc45)cc3)[nH]c2c1")
83

Then there is this compound:
Q) State, in one line, measured IC50 of c1cc2nc(Nc3ccc(CCNc4ncnc5ccsc45)cc3)[nH]c2cn1
A) 140
